Target: human 11β-HSD1 microsome fraction (Homo sapiens, UniProt P28845)
Sequence (P28845 whole entry): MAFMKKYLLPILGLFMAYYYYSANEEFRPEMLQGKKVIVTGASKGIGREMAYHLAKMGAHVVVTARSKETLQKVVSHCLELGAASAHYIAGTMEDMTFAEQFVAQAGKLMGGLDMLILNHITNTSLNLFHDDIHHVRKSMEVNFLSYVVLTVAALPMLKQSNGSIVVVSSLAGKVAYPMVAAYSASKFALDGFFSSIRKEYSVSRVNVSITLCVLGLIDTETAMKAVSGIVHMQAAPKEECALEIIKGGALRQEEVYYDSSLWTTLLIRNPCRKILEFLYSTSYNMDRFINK
Assay: Enzymatic 11beta-HSD1 test (SPA-based detection)
Format: biochemical
Conditions: human 11β-HSD1 microsomes, [1,2-3H]-cortisone, NADPH, 37° C., 1 hour; read-out: IC50 (nM), Biological activity in nanomolar
Protocol: Enzymatic 11beta-HSD1 test: First of all, 20 μl of the human 11β-HSD1 microsome fraction (0.2 μg of protein), prepared in 50 mM HEPES, 0.1% BSA (w/v), were applied to a plate with 384 wells. The test compounds (0.09 μl) were applied to the assay plate in 100% DMSO. The reaction was started by addition of 20 μl of [1,2-^3H]-cortisone (0.1 μCi/[…]) in assay buffer comprising 25 mM HEPES, 100 mM KCl, 5 mM NaCl, 2 mM MgCl2 and 0.25 mM NADPH. The plate was agitated at 37° C. for 1 hour. […]
PROPERTY_NAME: log10(IC50) (log10 of the value in nM)

[
  {
    "COMPOUND": "O=S1(=O)N=C(NC23CCC(CC2)CC3)OC2CCCC21 (centres unmarked)",
    "EXPERIMENTAL_VALUE": 1.87
  },
  {
    "COMPOUND": "CC12CCC(NC3=NS(=O)(=O)C4CCCC4O3)(CC1)CC2 (centres unmarked)",
    "EXPERIMENTAL_VALUE": 1.58
  },
  {
    "COMPOUND": "CC1(C)[C@@H]2CC[C@@]1(C)[C@H](NC1=NS(=O)(=O)C3CCCCC3O1)C2 (single isomer, unassigned) [Example 14]",
    "EXPERIMENTAL_VALUE": 2.37
  },
  {
    "COMPOUND": "CC12CCC(NC3=NS(=O)(=O)[C@H]4CCCC[C@H]4O3)(CC1)CC2",
    "EXPERIMENTAL_VALUE": 0.90
  },
  {
    "COMPOUND": "CC(C)CC(CC(C)C)NC1=NS(=O)(=O)C2CCCCC2O1 (centres unmarked)",
    "EXPERIMENTAL_VALUE": 2.83
  },
  {
    "COMPOUND": "C[C@@H](NC1=NS(=O)(=O)C2CCCCC2O1)C1CCCCC1 (some centres unmarked)",
    "EXPERIMENTAL_VALUE": 2.44
  },
  {
    "COMPOUND": "CC1(C)[C@@H]2CC[C@@]1(C)[C@H](O)[C@H]2NC1=NS(=O)(=O)C2CCCCC2O1 (some centres unmarked)",
    "EXPERIMENTAL_VALUE": 2.76
  },
  {
    "COMPOUND": "O=S1(=O)N=C(NC2CC[C@H]3CC[C@@H]2C3)OC2CCCCC21 (some centres unmarked)",
    "EXPERIMENTAL_VALUE": 1.46
  }
]

---

The following compounds are listed with their measured IC50 values.
Molecular target: human 11β-HSD1 microsome fraction (Homo sapiens)
Assay: Enzymatic 11beta-HSD1 test (SPA-based detection)
Format: biochemical
Settings: human 11β-HSD1 microsomes, [1,2-3H]-cortisone, NADPH, 37° C., 1 hour; read-out: IC50 (nM), Biological activity in nanomolar

[
  {
    "COMPOUND": "C[C@@H]1[C@@H](NC2=NS(=O)(=O)C3CCCCC3O2)C[C@H]2C[C@@H]1C2(C)C (some centres unmarked)",
    "IC50": "16 nM"
  },
  {
    "COMPOUND": "O=S1(=O)N=C(NCC2CCCCO2)OC2CCCCC21 (centres unmarked)",
    "IC50": "165 nM"
  },
  {
    "COMPOUND": "CC1CC(NC2=NS(=O)(=O)C3CCCCC3O2)CC(C)(C)C1 (centres unmarked)",
    "IC50": "20 nM"
  },
  {
    "COMPOUND": "CC(C)[C@]12CC(NC3=NS(=O)(=O)C4CCCCC4O3)[C@H](C)[C@H]1C2 (some centres unmarked)",
    "IC50": "54 nM"
  },
  {
    "COMPOUND": "O=S1(=O)N=C(N[C@@H]2CCCC[C@H]2CO)O[C@H]2CCCC[C@H]21",
    "IC50": "658 nM"
  },
  {
    "COMPOUND": "O=S1(=O)N=C(NN2CC3CCCC3C2)OC2CCCCC21 (centres unmarked)",
    "IC50": "308 nM"
  },
  {
    "COMPOUND": "CC1(C)[C@@H]2CC[C@@]1(C)[C@H](NC1=NS(=O)(=O)C3CCCCC3O1)C2 (single isomer, unassigned) [Example 9]",
    "IC50": "5 nM"
  },
  {
    "COMPOUND": "CC1(C)[C@@H]2CC[C@@]1(C)[C@@H](NC1=NS(=O)(=O)C3CCCCC3O1)C2 (some centres unmarked)",
    "IC50": "59 nM"
  }
]

---

Target: human 11β-HSD1 microsome fraction (Homo sapiens)
Test: Enzymatic 11beta-HSD1 test (SPA-based detection)
Type: biochemical
Details: human 11β-HSD1 microsomes, [1,2-3H]-cortisone, NADPH, 37° C., 1 hour; read-out: IC50 (nM), Biological activity in nanomolar
The following compounds are listed with their measured log10 IC50 values.
PROPERTY_NAME: log10 IC50 (log10 of the value in nM)

[
  {
    "COMPOUND": "CC(C)C(NC1=NS(=O)(=O)C2CCCCC2O1)c1cccs1 (stereo not drawn)",
    "SYSTEM": "human 11β-HSD1 microsome fraction (Homo sapiens)",
    "log10 IC50": 2.08
  },
  {
    "COMPOUND": "O=S1(=O)N=C(N[C@@H]2C[C@H]3CC[C@@H]2C3)OC2CCCCC21 (stereo partly drawn)",
    "SYSTEM": "human 11β-HSD1 microsome fraction (Homo sapiens)",
    "log10 IC50": 1.63
  },
  {
    "COMPOUND": "CC12CCCCC1S(=O)(=O)N=C(NC1CCCCC1)O2 (stereo not drawn)",
    "SYSTEM": "human 11β-HSD1 microsome fraction (Homo sapiens)",
    "log10 IC50": 1.69
  },
  {
    "COMPOUND": "CC12CCC(NC3=NS(=O)(=O)[C@@H]4CCCC[C@@H]4O3)(CC1)CC2",
    "SYSTEM": "human 11β-HSD1 microsome fraction (Homo sapiens)",
    "log10 IC50": 0.70
  },
  {
    "COMPOUND": "O=S1(=O)N=C(NC(C2CC2)C2CC2)OC2CCCCC21 (stereo not drawn)",
    "SYSTEM": "human 11β-HSD1 microsome fraction (Homo sapiens)",
    "log10 IC50": 2.64
  },
  {
    "COMPOUND": "O=S1(=O)N=C(NN2CCCCCC2)OC2CCCCC21 (stereo not drawn)",
    "SYSTEM": "human 11β-HSD1 microsome fraction (Homo sapiens)",
    "log10 IC50": 2.17
  },
  {
    "COMPOUND": "CC1(C)C2CCC1C(NC1=NS(=O)(=O)C3CCCCC3O1)C2O (stereo not drawn)",
    "SYSTEM": "human 11β-HSD1 microsome fraction (Homo sapiens)",
    "log10 IC50": 2.70
  },
  {
    "COMPOUND": "O=S1(=O)N=C(NC2CCSc3ccccc32)OC2CCCCC21 (stereo not drawn)",
    "SYSTEM": "human 11β-HSD1 microsome fraction (Homo sapiens)",
    "log10 IC50": 1.97
  },
  {
    "COMPOUND": "O=S1(=O)N=C(N[C@H]2CC[C@H](O)CC2)OC2CCCCC21 (stereo partly drawn)",
    "SYSTEM": "human 11β-HSD1 microsome fraction (Homo sapiens)",
    "log10 IC50": 2.55
  }
]
